target: human serum albumin (HSA) (Homo sapiens, UniProt P02768); construct: purchased Chiralpac; test: HPLC on immobilized HSA column, affinity and % plasma–protein binding; assay type: in vitro ADME; conditions: human, pH 7.4; % plasma–protein binding converted from log K HSA (Equation 10); read-out: %PPB HSA (converted)
Sequence (P02768 25-609): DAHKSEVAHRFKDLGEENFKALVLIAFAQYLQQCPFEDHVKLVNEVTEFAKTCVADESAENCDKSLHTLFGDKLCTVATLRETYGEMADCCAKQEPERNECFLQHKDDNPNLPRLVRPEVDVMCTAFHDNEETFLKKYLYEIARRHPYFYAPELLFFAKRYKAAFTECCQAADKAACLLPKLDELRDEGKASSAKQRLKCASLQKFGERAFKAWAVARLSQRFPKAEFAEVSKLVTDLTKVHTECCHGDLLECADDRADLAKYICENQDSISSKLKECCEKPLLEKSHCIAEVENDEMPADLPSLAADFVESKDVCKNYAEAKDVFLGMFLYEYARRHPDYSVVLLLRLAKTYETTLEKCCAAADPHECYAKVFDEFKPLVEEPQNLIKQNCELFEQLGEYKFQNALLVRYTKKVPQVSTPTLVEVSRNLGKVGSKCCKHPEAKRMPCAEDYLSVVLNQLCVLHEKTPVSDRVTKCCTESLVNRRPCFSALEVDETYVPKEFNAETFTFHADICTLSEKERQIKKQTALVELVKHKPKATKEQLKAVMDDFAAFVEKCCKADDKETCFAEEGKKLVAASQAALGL
Kindly state fraction unbound for each of the entries shown.
Answers are plain numbers.

Answered examples (3):
O=C(COc1ccccc1)NNC(=S)Nc1ccc(F)cc1; 0.04
O=C(COc1ccccc1)NNC(=S)Nc1cccc(Cl)c1; 0.036
O=C(COc1ccccc1)NNC(=S)Nc1ccc(Cl)cc1; 0.002

# batch size: 2; output fraction unbound per entry
1. CSc1ccc(NC(=S)NNC(=O)COc2ccccc2)cc1
2. O=C(COc1ccccc1)NNC(=S)Nc1ccc(Cl)c(Cl)c1

[0.011, 0.003]

# batch size: 4; output fraction unbound per entry
1. O=C(COc1ccccc1)NNC(=S)Nc1ccccc1I
2. O=C(COc1ccccc1)NNC(=S)Nc1cccc(F)c1
3. O=C(COc1ccccc1)NNC(=S)Nc1ccc([N+](=O)[O-])cc1
4. O=C(COc1ccccc1)NNC(=S)Nc1cccc2ccccc12

0.021
0.056
0.008
0.019

Looking up `O=C(COc1ccccc1)NNC(=S)Nc1ccccc1F` , I found its fraction unbound recorded as 0.041
